Molecular target: BioA, adenosylmethionine-8-amino-7-oxononanoate aminotransferase (Mycobacterium tuberculosis)
Experiment: BioA aminotransferase inhibition, biochemical, coupled fluorescence displacement, 20-point, dry powder, dose response (AID 743357)
Conditions: coupled fluorescence displacement assay, measured here: test 1 replicate AC50
attribute measured: AC50 (nM)
Give just the number in nM; leave the unit off.

Field: example entries. Status: answers known.
CC(=O)c1ccc(N2CCN(C(=O)c3cc4c(cc3C)OCO4)CC2)cc1 1090
CC(=O)c1ccc(N2CCN(C(=O)c3ccc4c(c3C)OCO4)CC2)cc1 53.7
CC(=O)c1ccc(N2CCN(C(=O)c3cccc4c3OCO4)CC2)cc1 1580
CC(=O)c1ccc(N2CCN(C(=O)c3ccc4c(c3)OCO4)CC2)cc1 30.1

Alright, here's another molecule for you.
(Q) Quickly give me recorded AC50 for `CC(=O)c1ccc(N2CCCN(C(=O)c3ccc4c(c3)OCO4)CC2)cc1`
(A) 289

====

Biological target: BioA, adenosylmethionine-8-amino-7-oxononanoate aminotransferase (Mycobacterium tuberculosis)
Experiment: BioA aminotransferase inhibition, biochemical, coupled fluorescence displacement, 20-point, dry powder, dose response (AID 743357)
Details: coupled fluorescence displacement assay, measured here: test 2 replicate AC50
attribute measured: AC50 (µM)
Give just the number in µM; leave the unit off.

CC(=O)c1ccc(N2CCN(C(=O)c3ccc4c(c3)OCO4)CC2)cc1 0.0692
CC(=O)c1ccc(N2CCN(C(=O)c3ccccc3Cl)CC2)cc1 8.24
CC(=O)c1ccc(N2CCN(C(=O)c3ccccc3F)CC2)cc1 6.4
COCC(=O)N1CC[C@@H]2[C@@H](CO)N(C)c3ccc(-c4cccc(F)c4)cc3[C@@H]21 0.0554
CCC(=O)N1CC[C@@H]2[C@@H](CO)N(C)c3ccc(-c4ccc(F)cc4)cc3[C@@H]21 2.82

Alright, here's another molecule for you.
(Q) Quickly give me recorded AC50 for `CC(=O)c1ccc(N2CCN(C(=O)c3ccc4c(c3)OCO4)[C@H](C)C2)cc1`
(A) 0.0553

====

Molecular target: BioA, adenosylmethionine-8-amino-7-oxononanoate aminotransferase (Mycobacterium tuberculosis)
Assay: BioA aminotransferase inhibition, biochemical, coupled fluorescence displacement, 20-point, dry powder, dose response (AID 743357)
Details: coupled fluorescence displacement assay, measured here: test 1 replicate AC50
attribute measured: AC50

Field: example entries. Status: answers known.
compound	AC50
CC(=O)c1ccc(N2CCN(C(=O)Nc3ccc4c(c3)OCO4)CC2)cc1	> 20 µM
CC(=O)c1ccc(N2CCN(C(=O)c3ccc4ocnc4c3)CC2)cc1	0.198 µM
CC(=O)c1ccc(N2CCN(C(=O)c3cc4c(cn3)OCO4)CC2)cc1	> 20 µM
CC(=O)c1ccc(N2CC3CC2CN3C(=O)c2ccc3c(c2)OCO3)cc1 (stereo not given)	> 20 µM

Alright, here's another compound for you.
(Q) Quickly give me recorded AC50 for `COc1cc(C(=O)N2CCN(c3ccc(C(C)=O)cc3)CC2)cc2c1OCO2`
(A) 0.181 µM
